test system: E. faecium (enfu); assay: Example 3: colony color on chromogenic TSA II with 5% sheep blood (chromogen in medium); type: cell-based; settings: enfu 49032; CO2; 21 h

>  <Compound>
O=P(O)(O)Oc1c[nH]c2cc(Cl)c(Br)cc12 [Mag-Phos]

>  <Colony Color>
vlgp

$$$$
>  <Compound>
OC[C@H]1O[C@@H](Oc2c[nH]c3ccc(Br)c(Cl)c23)[C@H](O)[C@@H](O)[C@H]1O [X-Gal]

>  <Colony Color>
gb

$$$$
>  <Compound>
CC(=O)N[C@H]1[C@H](Oc2c[nH]c3ccc(Br)c(Cl)c23)O[C@H](CO)[C@H](O)[C@@H]1O [X-Acglmn]

>  <Colony Color>
db

$$$$
